testSummary: NCI Yeast Anticancer Drug Screen. Data for the mec2-1 strain (AID 157)
assaySetup: S. cerevisiae mec2-1 strain, at 50.0 µM (retest, dose inferred, filed as 5.0), hits give high values
This is part of a sample that, as a whole, favours compounds with a hit. Of some 79,000 tested, about 15% had one in any assay.

compound: C[C@H](CCC1=NC(C)(C)CO1)C1CCC2[C@@H]3C(O)C[C@@H]4CC(O)CC[C@]4(C)C3CC[C@@]21C (some centres not stated)
unitAnnotation: %
growth inhibition: 98
--
compound: O=C1C(=O)N(c2ccccc2)[C@@]2(c3ccccc3)C(=Nc3ccccc3)OC(c3ccccc3)=C12
unitAnnotation: %
growth inhibition: 45
--
compound: CCOC(=S)SSSC(=S)OCC
unitAnnotation: %
growth inhibition: 100
--
compound: O=C1/C(=C/c2ccc(Cl)c(Cl)c2)CNC/C1=C\c1ccc(Cl)c(Cl)c1
unitAnnotation: %
growth inhibition: 74
--
compound: O=C1Nc2ccc(Br)cc2C1=Nc1ccc(Cl)cc1
unitAnnotation: %
growth inhibition: 100
--
compound: CCC(/C=C/c1ccccc1)=N\Nc1ccc(Cl)cc1
unitAnnotation: %
growth inhibition: 80
--
compound: O=C1C=C(Br)C(=O)c2ccccc21
unitAnnotation: %
growth inhibition: 99

Cited source: PubChem BioAssay (NCI)
